test: Cmax in Brown Norway rat iris administered topically; format: ADME, tissue-based; settings: topical or ocular
endpointLabel: Cmax
Please don't drop the unit; write it after the number.

Look up Cmax for this compound: CCOC(=O)c1c(C)cc2nc(COC(=O)NCCO)n(-c3ccccc3S(=O)(=O)NC)c(=O)c2c1C
18 nM

###

test: AUC in Brown Norway rat plasma administered topically after 3 hrs; format: ADME, cell-free; design: time < 3 hr; concentration or dose not given beside the values; settings: Brown Norway, topical or ocular
Decide using AUC at 3 h alone. Strictly below 0.01 µM·h: TRUE. Equal to or above 0.01 µM·h: FALSE.

Answered cases to consult:
{"compound": "CCOC(=O)c1c(C)cc2nc(COC(=O)NCCOC(=O)[C@H](N)c3ccccc3Cl)n(-c3ccccc3S(=O)(=O)NC)c(=O)c2c1C", "labelValue": "TRUE"}
{"compound": "CCOC(=O)c1c(C)cc2nc(COC(=O)NCCO)n(-c3ccccc3S(=O)(=O)NC)c(=O)c2c1C", "labelValue": "FALSE"}
{"compound": "CCOC(=O)c1c(C)cc2nc(COC(=O)NCCOC(=O)C3CCCCN3)n(-c3ccccc3S(=O)(=O)NC)c(=O)c2c1C (stereo unspecified)", "labelValue": "FALSE"}

# TODO verify AUC at 3 h < 0.01 µM·h strictly for this compound: CCOC(=O)c1c(C)cc2nc(COC(=O)NCCOC(=O)[C@@H](N)C(C)C)n(-c3ccccc3S(=O)(=O)NC)c(=O)c2c1C
FALSE

# TODO verify AUC at 3 h < 0.01 µM·h strictly for this compound: CCOC(=O)c1c(C)cc2nc(COC(=O)NCCOC(=O)CN)n(-c3ccccc3S(=O)(=O)NC)c(=O)c2c1C
TRUE

###

test: AUC (0 to last) in Brown Norway rat aqueous humor administered topically; format: ADME; parameters: time 0 - last; settings: topical or ocular
endpointLabel: AUC(0-t) (µM·h)
Just the number in µM·h, nothing appended.

Look up AUC(0-t) for this compound: CCOC(=O)c1c(C)cc2nc(COC(=O)NCCO)n(-c3ccccc3S(=O)(=O)NC)c(=O)c2c1C [SAD448]
0.05

###

biological target: Cannabinoid receptor 1 (Homo sapiens, UniProt P21554)
Sequence (P21554 whole entry): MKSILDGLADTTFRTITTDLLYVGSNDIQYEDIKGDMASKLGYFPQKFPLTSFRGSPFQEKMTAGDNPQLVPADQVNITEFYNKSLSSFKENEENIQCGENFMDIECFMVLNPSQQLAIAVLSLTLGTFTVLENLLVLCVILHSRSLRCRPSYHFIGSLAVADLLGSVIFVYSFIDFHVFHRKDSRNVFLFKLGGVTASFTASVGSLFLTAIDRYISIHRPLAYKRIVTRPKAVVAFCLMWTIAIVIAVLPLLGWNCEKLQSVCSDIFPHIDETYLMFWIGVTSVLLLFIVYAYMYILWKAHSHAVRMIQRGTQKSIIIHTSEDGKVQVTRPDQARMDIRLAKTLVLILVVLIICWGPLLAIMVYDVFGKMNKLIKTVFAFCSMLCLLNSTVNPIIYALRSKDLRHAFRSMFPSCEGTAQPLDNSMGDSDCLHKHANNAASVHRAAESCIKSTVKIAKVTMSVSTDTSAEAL
endpointLabel: pIC50
Field pIC50 (float): negative decimal logarithm of the concentration in molar.

Look up pIC50 for this compound: CCOC(=O)c1c(C)cc2nc(COC(=O)NCCO)n(-c3ccccc3S(=O)(=O)NC)c(=O)c2c1C
7.03

###

experiment: Aqueous solubility of the compound at pH 6.8; format: physicochemical; conditions: aqueous medium, read-out: solubility
endpointLabel: solubility (µM)
Just the number in µM, nothing appended.

Look up solubility for this compound: CCOC(=O)c1c(C)cc2nc(COC(=O)NCCO)n(-c3ccccc3S(=O)(=O)NC)c(=O)c2c1C [SAD448]
340

###

experiment: Cmax in Brown Norway rat aqueous humor administered topically; type: ADME, tissue-based, Aqueous humor of eyeball; details: topical or ocular
endpointLabel: Cmax (nM)
Just the number in nM, nothing appended.

Look up Cmax for this compound: CCOC(=O)c1c(C)cc2nc(COC(=O)NCCO)n(-c3ccccc3S(=O)(=O)NC)c(=O)c2c1C
82

###

experiment: Tmax in Brown Norway rat plasma administered topically; assay type: ADME, cell-free; settings: topical or ocular
endpointLabel: Tmax (min)
Just the number in min, nothing appended.

Look up Tmax for this compound: CCOC(=O)c1c(C)cc2nc(COC(=O)NCCO)n(-c3ccccc3S(=O)(=O)NC)c(=O)c2c1C [SAD448]
4.98
